Origin of the recorded values: ChEMBL document CHEMBL6083190

MEASUREMENT PROTOCOL: Cytotoxicity against rat PC-12 cells assessed as cell viability at 20 uM by MTT assay relative to control
Format: toxicity, cell-based
CONDITION SET: read-out: Activity
Non-standard residues stand in square brackets, D forms with d. Residues, ends and D or L forms follow the SMILES beside them. Aib = CC(C)(N)C(=O)O
READOUT NAME: viability at 20 µM

What value of viability at 20 µM has been reported for the following compound? CC[C@H](C)[C@H](NC(=O)[C@H](C)N)C(=O)NC(C)(C)C(=O)N[C@H](C(N)=O)C(C)C (H-AI[Aib]V-NH2) 98.5%

----------
MEASUREMENT PROTOCOL: Cytotoxicity against rat PC-12 cells assessed as cell viability at 50 uM by MTT assay relative to control
Type: toxicity, cell-based
CONDITION SET: read-out: Activity
Non-standard residues stand in square brackets, D forms with d. Residues, ends and D or L forms follow the SMILES beside them. Aib = CC(C)(N)C(=O)O
READOUT NAME: viability at 50 µM (%)
Respond with the bare value in %.

Which viability at 50 µM is listed for CC[C@H](C)[C@H](NC(=O)[C@H](C)N)C(=O)NC(C)(C)C(=O)N[C@H](C(N)=O)C(C)C (H-AI[Aib]V-NH2) ? 97.9
